We begin with a simple list: items and their reported inhibition.
Species: Rattus norvegicus
assay.remarks: Inhibition of acetyl-CoA carboxylase in rat skeletal muscle by HPLC at 10 uM
Type: tissue-based
condition.set: Muscle tissue

State, in one line, measured inhibition of O=C1CC2(CCN(C(=O)c3cc(-c4ccccc4)nc(-c4ccccc4)c3)CC2)Oc2cc(N3CCCC3)ccc21
> 90%

State, in one line, measured inhibition of CC(=O)N[C@H](C)C#Cc1ccc2c(c1)C(=O)CC1(CCN(C(=O)c3cc(-c4ccccc4)nc(-c4ccccc4)c3)CC1)O2
> 90%

State, in one line, measured inhibition of O=C1CC2(CCN(C(=O)N3c4ccccc4CCc4ccccc43)CC2)Oc2ccc(N3CCOCC3)cc21
7%
